ASSAY REMARKS: TOR pathway RTG branch CIT2 reporter changes – S. cerevisiae, GFP fusion, multiplex flow cytometry, primary screen (AID 1870);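 note: barcoded CIT2-GFP strain pooled with four other GFP strains with rapamycin as positive control; median GFP fluorescence per well over plate mean of DMSO wells so 100% = DMSO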
REPORTED CONDITIONS: S. cerevisiae CIT2-GFP expression, 3 h, at 10 µM, stronger effect = higher value
This section presents molecules with their documented percent response of DMSO control values.

MOLECULE: COC(=O)c1cc(Br)c(=O)n(CCc2ccc(O)cc2)c1
percent response of DMSO control / %: 93.9
//
MOLECULE: NS(=O)(=O)c1ccc(CCNC(=O)C2CCCN2C(=O)OCc2ccccc2)cc1 (stereo unspecified)
percent response of DMSO control / %: 112
//
MOLECULE: COc1ccc([C@H]2[C@H](C(=O)OC(C)(C)C)N3N=Cc4ccccc4C3C23C(=O)c2ccccc2C3=O)cc1OC (stereo partly specified)
percent response of DMSO control / %: 97.7
//
MOLECULE: COC(=O)c1ccc(C(=O)OC)c(NC(=O)C(C)C)c1
percent response of DMSO control / %: 102
//
MOLECULE: O=C1CC[C@@H](CN(Cc2ccccc2)Cc2cn[nH]c2-c2cc3ccccc3o2)N1
percent response of DMSO control / %: 99.6
//
MOLECULE: COc1cc2c(cc1NCc1ccc3c(c1)OCO3)oc1ccccc12
percent response of DMSO control / %: 112
//
MOLECULE: O=C(COc1ccc2ccc(=O)oc2c1)c1ccccc1
percent response of DMSO control / %: 102
//
MOLECULE: CCOC(=O)c1ccc(N2C(=O)C(CC(=O)NC)N(CCc3ccc(OC)c(OC)c3)C2=S)cc1 (stereo unspecified)
percent response of DMSO control / %: 101
//
MOLECULE: CCOC(=O)C(NC(C)=O)C(O)c1ccc([N+](=O)[O-])cc1 (stereo unspecified)
percent response of DMSO control / %: 85.3
//
MOLECULE: O=C(Cc1ccccc1[N+](=O)[O-])NCCCN1CCOCC1
percent response of DMSO control / %: 96.4
//
MOLECULE: CC(C)(Oc1ccc(CCNC(=O)c2ccc(Cl)cc2)cc1)C(=O)O
percent response of DMSO control / %: 96.6
//
MOLECULE: CC(=O)OC1c2c(ccc3ccc(=O)oc23)OC(C)(C)C1OC(=O)CC(C)C (stereo unspecified)
percent response of DMSO control / %: 104
//
MOLECULE: O=S(=O)(CCc1nc2ccccc2[nH]1)c1ccc(Cl)cc1
percent response of DMSO control / %: 98.6
//
MOLECULE: CC12CC(c3ccccc3O1)C(C(=O)N1CCOCC1)C(=O)N2 (stereo unspecified)
percent response of DMSO control / %: 101
//
MOLECULE: CC1(C)CC(C(CC(=O)N2CCCC2)Cc2ccccc2)CCO1 (stereo unspecified)
percent response of DMSO control / %: 104
//
MOLECULE: Cc1ccc2c(c1)c(C)cc(=O)n2CCC(=O)O
percent response of DMSO control / %: 98.6
//
MOLECULE: NC(N)=N/N=C/c1ccc(OS(=O)(=O)c2ccccc2)cc1
percent response of DMSO control / %: 101
//
MOLECULE: Cc1nc2ccccc2n1CC(=O)NC1CCCC1
percent response of DMSO control / %: 109
//
MOLECULE: CCC(C(=O)OCCN(CC)CC)c1ccccc1 (stereo unspecified)
percent response of DMSO control / %: 98.2
//
MOLECULE: CSCCC1NC2(C(=O)Nc3ccc(Cl)cc32)[C@@H]2C(=O)N(C3CCCC3)C(=O)[C@H]12 (stereo partly specified)
percent response of DMSO control / %: 103
//
MOLECULE: CC(=O)N(CCC1(c2ccc(C)cc2)CCOC(C(C)C)C1)Cc1ccco1 (stereo unspecified)
percent response of DMSO control / %: 116
//
MOLECULE: CC1CCc2cc(F)cc3c(=O)c(C(=O)O)cn1c23 (stereo unspecified)
percent response of DMSO control / %: 95.4
//
MOLECULE: CC1(C)CC(=O)C(C2=NC(C)(C)Cc3ccccc32)=C(O)C1
percent response of DMSO control / %: 108
//
MOLECULE: CC(=O)OC(CC(=O)O)C[N+](C)(C)C (stereo unspecified)
percent response of DMSO control / %: 95.4
//
MOLECULE: NS(=O)(=O)c1cc2c(cc1C(F)(F)F)NC(Cc1ccccc1)NS2(=O)=O (stereo unspecified)
percent response of DMSO control / %: 106
//
MOLECULE: CC1(C)[C@@H](O)CC[C@]2(C)[C@H]3C(=O)C=C4[C@@H]5C[C@@](C)(C(=O)O)CC[C@]5(C)CC[C@@]4(C)[C@]3(C)CC[C@@H]12
percent response of DMSO control / %: 89.6
//
MOLECULE: O=C(NCCN1CCN(c2ccccc2)CC1)c1cccc(Br)c1
percent response of DMSO control / %: 107
//
MOLECULE: CCCN1CCC(NC(=O)Nc2ccc(Br)cc2)CC1
percent response of DMSO control / %: 102
//
MOLECULE: COc1cccc(-n2c(C)c3c(OC)cccc(=O)c3c2C)c1
percent response of DMSO control / %: 106
//
MOLECULE: CCSC(SCC)[C@H](O)[C@@H](O)[C@H](O)[C@H](O)CO
percent response of DMSO control / %: 107
//
MOLECULE: CSCCC(NC(=O)OC(C)(C)C)C(=O)Oc1ccc2c(=O)c(-c3ccc4c(c3)OCCO4)coc2c1 (stereo unspecified)
percent response of DMSO control / %: 94.8

====

ASSAY REMARKS: TOR pathway CIT2 reporter hit retest – S. cerevisiae, GFP fusion, cherry picks, mother/daughter gates, confirmation (AID 2274)
REPORTED CONDITIONS: S. cerevisiae CIT2-GFP strain, flow cytometry, 3 h; measured here: daughter cell gate; at 10 µM; stronger effect = higher value

COMPOUND: C[n+]1ccccc1/C=N/O
UNIT ABBREVIATION: %
GFP response, % of DMSO: 108

COMPOUND: CN(c1ccccc1)c1ccc(/C=c2\s/c(=C(/C#N)C(=O)C(C)(C)C)n(Cc3ccco3)c2=O)cc1
UNIT ABBREVIATION: %
GFP response, % of DMSO: 229

COMPOUND: Cc1ccc2[nH]c3c(c2c1)CCNC3=O
UNIT ABBREVIATION: %
GFP response, % of DMSO: 106

COMPOUND: CCOC(=O)C(Cc1cc(C(C)=O)ccc1OC(C)C)C(=O)OCC
UNIT ABBREVIATION: %
GFP response, % of DMSO: 98.3

COMPOUND: CN1CCN2c3ccccc3Cc3ccccc3C2C1 (centres undefined)
UNIT ABBREVIATION: %
GFP response, % of DMSO: 94.8

COMPOUND: CC(NCCc1ccc(O)cc1)C(O)c1ccc(O)cc1 (centres undefined)
UNIT ABBREVIATION: %
GFP response, % of DMSO: 101

COMPOUND: CC(=O)Nc1ccccc1O
UNIT ABBREVIATION: %
GFP response, % of DMSO: 105

COMPOUND: N=c1c(C(=O)NCc2ccco2)cc2c(=O)n3ccccc3nc2n1CCc1ccccc1
UNIT ABBREVIATION: %
GFP response, % of DMSO: 95.4

COMPOUND: Nc1[nH]c(=O)ncc1F
UNIT ABBREVIATION: %
GFP response, % of DMSO: 79.7

COMPOUND: O=C(C#Cc1cccc([N+](=O)[O-])c1)c1ccccc1
UNIT ABBREVIATION: %
GFP response, % of DMSO: 104

COMPOUND: NS(=O)(=O)c1cc2c(cc1C(F)(F)F)NC(Cc1ccccc1)NS2(=O)=O (centres undefined)
UNIT ABBREVIATION: %
GFP response, % of DMSO: 104

COMPOUND: COc1ccc(-c2noc(-c3ccccc3-c3ccccc3)n2)cc1
UNIT ABBREVIATION: %
GFP response, % of DMSO: 97.4

COMPOUND: C[C@]12CCC(=O)C=C1CC[C@@H]1[C@@H]2[C@@H](O)C[C@@]2(C)[C@H]1CC[C@]2(O)C(=O)CO
UNIT ABBREVIATION: %
GFP response, % of DMSO: 99.7

COMPOUND: Cc1cc(C)c(C(=O)Cn2cnc3cc([N+](=O)[O-])ccc3c2=O)cc1C
UNIT ABBREVIATION: %
GFP response, % of DMSO: 97.6

COMPOUND: CC(=O)[C@@]1(O)CC[C@H]2[C@@H]3C[C@H](C)C4=CC(=O)CC[C@]4(C)[C@H]3CC[C@@]21C
UNIT ABBREVIATION: %
GFP response, % of DMSO: 101

COMPOUND: OC(CCN1CCCCC1)(c1ccccc1)c1ccccc1
UNIT ABBREVIATION: %
GFP response, % of DMSO: 96.5

COMPOUND: COc1ccc(-c2[nH]ncc2CN(CCO)Cc2cccs2)c(F)c1
UNIT ABBREVIATION: %
GFP response, % of DMSO: 103

COMPOUND: O=C(NCCN1CCN(c2ccccc2)CC1)c1cccc(Br)c1
UNIT ABBREVIATION: %
GFP response, % of DMSO: 100

COMPOUND: CC(=O)CSc1ncnc2c1cnn2-c1ccccc1
UNIT ABBREVIATION: %
GFP response, % of DMSO: 92
